Assay: physchem
Assay type: physicochemical
Marks after values point to notes of the source that are not given here.
Measured Parameter: LogP

Example cases with answers are listed next.
The recorded LogP for Cc1cc(C(=O)NCC(F)c2ccc(Cl)cc2Cl)c(Oc2cccc(Cl)c2)cn1 (racemic) [Compound I-053] is 4.12^[a]

Kindly note the recorded LogP for COc1cccc(Oc2cnc(Cl)cc2C(=O)NCC(F)(F)c2ccc(C)cc2C)c1 [Compound I-042] , which is 4.46^[a]

LogP in this record for O=C(NCCc1ccc2c(c1)OCO2)c1cc(Cl)ncc1Oc1cccc(C(F)(F)F)c1 [Compound I-108] : 3.87^[a]

The reported value for Cc1ccc(CCNC(=O)c2cc(Cl)nc(C#N)c2Oc2cccc(C(F)(F)F)c2)c(C)c1 [Compound I-225] in terms of LogP is 4.58^[a]

Noted for Cc1cc(C(=O)NCC(F)c2ccc(Cl)cc2Cl)c(Oc2cccc(C3CC3)c2F)cn1 (racemic) [Compound I-078] : its LogP reads 4.49^[a]

// field: LogP; key: CCc1cc(C(=O)NCC(F)(F)c2ccc(C)cc2C)c(Oc2cccc(C3CC3)c2)cn1 [Compound I-212] ; value = 4.90^[a]

Others:
// field: LogP; key: Cc1ccc(CCNC(=O)c2cc(C(F)(F)F)ncc2Oc2cccc(C(F)(F)F)c2)c(C)c1 [Compound I-208] ; value = 5.04^[a]

Lab note: CSc1cccc(Oc2cnc(Cl)cc2C(=O)NCCc2ccc(C)cc2C)c1 [Compound I-248] gave LogP of 4.76^[a]

Reported LogP ( Cc1ccc(C(F)(F)CNC(=O)c2c(Br)cnc(Cl)c2Cl)c(C)c1 [Compound 3-006] ) = 3.98^[a]

Recorded LogP (molecule Cc1ccc(CCNC(=O)c2cc(Cl)ncc2Oc2cccc(C3CC3F)c2)c(C)c1 (single isomer, unassigned) [Compound I-265] ): 4.70^[a]

response.value for COc1cc(C(=O)O)c(Oc2cccc(C(F)(F)F)c2)cn1 [Compound 1-017] (field: LogP) = 2.86^[a]

Origin of the recorded values: patent US12552748B2
